target: Hsp90 (Homo sapiens)
Each entry below carries its recorded pKd.
Would you please state pKd, meaning minus log10 of the concentration in mol/L, as a bare number?

// known answers, use as guide
{"MOLECULE": "COC1CCC=CC(=O)Nc2cc(c(Br)c(O)c2Br)CC(C)CC(OC)C(O)C(C)C=C(C)C1OC(N)=O (stereo not shown)", "pKd": 5.23}
{"MOLECULE": "CO[C@H]1C[C@H](C)Cc2cc(O)cc(c2)NC(=O)CC(O)CC[C@H](OC)[C@@H](O)/C(C)=C/[C@H](C)[C@H]1O (stereo partly shown)", "pKd": 4.77}
{"MOLECULE": "COC1CCC=CC(=O)Nc2cc(cc(O)c2CN2CCOCC2)CC(C)CC(OC)C(O)C(C)C=C(C)C1OC(N)=O (stereo not shown)", "pKd": 6.19}
{"MOLECULE": "COC1CCC=CC(=O)Nc2cc(cc(OCCN(C)C)c2)CC(C)CC(OC)C(O)C(C)C=C(C)C1OC(N)=O (stereo not shown)", "pKd": 6.64}
{"MOLECULE": "COC1CCC=CC(=O)Nc2cc(cc(O)c2CN(C)C)CC(C)CC(OC)C(O)C(C)C=C(C)C1OC(N)=O (stereo not shown)", "pKd": 6.70}
{"MOLECULE": "C=CCOc1cc2cc(c1)NC(=O)C=CCCC(OC)C(OC(N)=O)C(C)=CC(C)C(O)C(OC)CC(C)C2 (stereo not shown)", "pKd": 6.00}

Query: # query: pKd of entry COC1CCC=CC(=O)Nc2cc(cc(OCC(=O)O)c2)CC(C)CC(OC)C(O)C(C)C=C(C)C1OC(N)=O (stereo not shown)
Reply: 6.03
